- TARGET_OF_ASSAY: 3CLpro (Severe acute respiratory syndrome coronavirus 2)
- ASSAY_NAME: SARS-CoV-2 3CLpro protease assay (duplex, SAMDI-MS)
- Format: biochemical
- Set-up: For the duplex assay, 3CLpro and HRV3C was added
- EXPERIMENTAL_CONDITIONS: 3CLpro, 30 mins preincubation, class symbols; read-out: SARS-Cov-2 IC50
pIC50: −log10 of the molar value.
For each of the compounds below, state its pIC50.

COMPOUND: O=C(NC1CC1)C(=O)[C@H](C[C@@H]1CCNC1=O)NC(=O)[C@@H]1CC2(CCN1C(=O)c1cc3ccccc3s1)CC2
MEASURED_RESULT: 6.70 to 7.70
--
COMPOUND: COc1cccc2[nH]c(C(=O)N3C[C@@H]4CCC[C@@H]4[C@H]3C(=O)N[C@H](C=O)C[C@@H]3CCNC3=O)cc12 [Compound 14A]
MEASURED_RESULT: 6.70 to 7.70
--
COMPOUND: COc1cccc2[nH]c(C(=O)N3C[C@@H]4CCC[C@@H]4[C@H]3C(=O)N[C@@H](CN3CC[C@H](O)C3=O)C(=O)C(=O)NC3CC3)cc12
MEASURED_RESULT: 4.70 to 5.70
--
COMPOUND: COc1cccc2[nH]c(C(=O)N3C[C@@H]4CCC[C@@H]4[C@H]3C(=O)N[C@@H](Cn3cc[nH]c3=O)C(=O)C(=O)NC3CC3)cc12
MEASURED_RESULT: 5.70 to 6.70
--
COMPOUND: N#C[C@H](C[C@@H]1CCNC1=O)NC(=O)[C@@H]1[C@H]2CCC[C@H]2CN1C(=O)c1cc2c(OC3CC3)cc(Cl)cc2[nH]1
MEASURED_RESULT: 5.70 to 6.70

Okay, next one:
Inquiry: Can you share its pIC50? I mean this compound: O=C(NCc1ccccc1)C(=O)C(C[C@@H]1CCNC1=O)NC(=O)[C@@H]1C[C@@H](OCc2ccccc2)CN1C(=O)c1cc2ccccc2[nH]1 (stereo partly drawn)
Reply text: 4.70 to 5.70
